From: ChEMBL document CHEMBL4715837

Biological target: Quadruplex DNA
Test: Binding affinity at Tel45-9 mutant G4 quadruplex DNA (unknown origin) by fluorescence spectroscopic analysis
Format: nucleic-acid assay
Metric Name: Kd (µM)
Could you give me the number in µM? Just the number is fine.

So what Kd did CN1CCN(c2ccc(-c3nc(-c4ccc(-c5nc(-c6ccc(F)cc6)c(-c6ccc(N7CCN(C)CC7)cc6)[nH]5)cc4)[nH]c3-c3ccc(F)cc3)cc2)CC1 get with Quadruplex DNA?
10.7

====

Target: Quadruplex DNA
Assay: Binding affinity at Tel45-6 mutant G4 quadruplex DNA (unknown origin) by fluorescence spectroscopic analysis
Format: nucleic-acid assay
Metric Name: pKd
Please note pKd is a logarithmic value: minus log10 of concentration in mol/L. Answer with that number alone.

Entry under review: CN1CCN(c2ccc(-c3nc(-c4ccc(-c5nc(-c6ccc(F)cc6)c(-c6ccc(N7CCN(C)CC7)cc6)[nH]5)cc4)[nH]c3-c3ccc(F)cc3)cc2)CC1 . Reported pKd?
5.07
